# Test system: equine IL-31
# Sequence (as listed by the source): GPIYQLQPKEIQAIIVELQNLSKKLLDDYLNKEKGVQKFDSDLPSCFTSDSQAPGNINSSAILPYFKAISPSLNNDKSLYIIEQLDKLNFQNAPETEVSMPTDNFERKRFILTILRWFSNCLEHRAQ
# EXPERIMENT: Equine challenge study using the IL-31 itch model after IL-31 mimotope vaccines
# Format: in vivo, Horse
# STUDY CONDITIONS: T03, T05, T06, T07: IM; Day 105 post-boost; group mean
MEASURED PROPERTY: 2nd Challenge Average % Change in pruritus scores (%)
Answer in %, number only, no unit symbol.

Known 2nd Challenge Average % Change in pruritus scores results, listed for orientation:
SUBSTANCE	MEASUREMENT UNIT	VALUE OBSERVED
Ac-C[Ahx]C(mT2b)TEVSMPTDNFERKRFILTC(mT2b)-NH2 [ZTS-7240]	%	−84.27
Ac-CGSGNSSAILPYFKAISPSLNNDKSLYIIEQLDKLNF-NH2 (not fully specified; printed as Ac-CGSGNSSAILPYFKAISPSLNNDKSLYIIEQLDKLNF-NH2; numbers in words are those of the source; also: CRM197 conjugate) [ZTS-765, tested as CRM197 conjugate with SP oil + CpG]	%	−45.03
Ac-CGSGKEKGVQKFDS-NH2 (not fully specified; printed as Ac-CGSGKEKGVQKFDS-NH2; numbers in words are those of the source; also: CRM197 conjugate) [ZTS-7242, tested as CRM197 conjugate with SP oil + CpG]	%	46.28

Challenge: Value lookup for 2nd Challenge Average % Change in pruritus scores; key = Ac-CGSGGPIYQLQPKEIQAIIVELQNLSKK-NH2 (not fully specified; printed as Ac-CGSGGPIYQLQPKEIQAIIVELQNLSKK-NH2; numbers in words are those of the source; also: CRM197 conjugate) [ZTS-7241, tested as CRM197 conjugate with SP oil + CpG]
Response given: −68.70

These data points were gathered from patent US20220273793A1.
